biological target: CYP3A4 (Homo sapiens); construct: A system of 100 μL human liver microsomes; from tissue; host or cells: human liver microsomes; assay: Direct inhibition (DI) of CYP3A4 in human liver microsomes; type: in vitro ADME; settings: human liver microsomes 0.2 mg/mL, 10 μM compound, probe Testosterone, read-out: Direct inhibition (DI) 3A4 (testosterone)
Sequence (P08684 whole entry): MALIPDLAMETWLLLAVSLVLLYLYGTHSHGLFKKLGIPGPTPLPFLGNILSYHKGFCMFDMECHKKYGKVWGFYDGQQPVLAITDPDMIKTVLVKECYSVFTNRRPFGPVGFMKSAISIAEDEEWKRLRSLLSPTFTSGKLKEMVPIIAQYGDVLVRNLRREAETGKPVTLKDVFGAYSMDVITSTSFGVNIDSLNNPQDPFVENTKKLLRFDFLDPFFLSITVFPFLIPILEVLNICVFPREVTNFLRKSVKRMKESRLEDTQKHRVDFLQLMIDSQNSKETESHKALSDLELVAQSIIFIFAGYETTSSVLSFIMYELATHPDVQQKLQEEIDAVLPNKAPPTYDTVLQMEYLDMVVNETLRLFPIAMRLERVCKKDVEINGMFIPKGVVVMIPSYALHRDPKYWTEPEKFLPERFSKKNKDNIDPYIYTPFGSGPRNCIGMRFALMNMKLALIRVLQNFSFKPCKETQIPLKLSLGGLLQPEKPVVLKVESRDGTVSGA
Respond with true (1) for inhibition at 20 min, 10 µM values of 20% and above, false (0) for values below.

Please review the entries below; each comes with its answer.
Compound: Cc1cc(Nc2ncnc3ccc(NC(=O)/C=C/[C@H]4CCCN4C)cc23)ccc1Oc1cc2nccn2cn1
Class: false (0)

Compound: CCOc1cc2ncnc(Nc3ccc(Oc4ccn5ncnc5c4)c(C)c3)c2cc1NC(=O)/C(F)=C/[C@H]1CCCN1C
Class: true (1)

Compound: Cc1cc(Nc2ncnc3ccc(NC(=O)/C(F)=C/[C@H]4CCCN4C)cc23)ccc1Oc1cc2nncn2cn1
Class: false (0)

Compound: CCOc1cc2ncc(C#N)c(Nc3ccc(OCc4ccccn4)c(Cl)c3)c2cc1NC(=O)/C=C/[C@H]1CCCN1C [Pyrotinib, reference compound]
Class: true (1)

Compound: Cc1cc(Nc2c(C#N)cnc3ccc(NC(=O)/C=C/[C@H]4CCCN4C)cc23)ccc1Oc1cc2nncn2cn1
Class: false (0)

Field: next compound
Would you say CCOc1cc2ncnc(Nc3ccc(Oc4ccn5ncnc5c4)c(C)c3)c2cc1NC(=O)/C=C/[C@H]1CCCN1C shows inhibition at 20 min, 10 µM at minimum 20%?
true (1)

----------
target: CYP2C19 (Homo sapiens, UniProt P33261); construct: A system of 100 μL human liver microsomes; from tissue; host or cells: human liver microsomes; test: Direct inhibition (DI) of CYP2C19 in human liver microsomes; type: in vitro ADME; conditions: probe Mephenytoin, human liver microsomes 0.2 mg/mL, 10 μM compound, read-out: Direct inhibition (DI) 2C19 (Mephenytoin)
Sequence (P33261 whole entry): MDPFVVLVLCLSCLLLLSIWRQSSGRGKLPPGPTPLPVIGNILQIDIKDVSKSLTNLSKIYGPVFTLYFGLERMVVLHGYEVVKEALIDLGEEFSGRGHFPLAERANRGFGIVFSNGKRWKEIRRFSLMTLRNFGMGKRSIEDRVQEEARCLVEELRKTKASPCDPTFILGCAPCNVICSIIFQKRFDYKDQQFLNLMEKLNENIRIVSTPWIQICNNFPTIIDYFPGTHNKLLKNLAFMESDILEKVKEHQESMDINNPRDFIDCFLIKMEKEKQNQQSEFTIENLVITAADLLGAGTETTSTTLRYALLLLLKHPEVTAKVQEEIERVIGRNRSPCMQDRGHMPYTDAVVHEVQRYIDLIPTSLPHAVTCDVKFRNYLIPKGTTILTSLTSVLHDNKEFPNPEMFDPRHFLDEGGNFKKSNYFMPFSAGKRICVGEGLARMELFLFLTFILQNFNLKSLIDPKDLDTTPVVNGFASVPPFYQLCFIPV
Metric Name: inhibition at 20 min, 10 µM (%)
Reply numerically in %, unit not repeated.

Guide cases for inhibition at 20 min, 10 µM, answers given:
Compound: CCOc1cc2ncnc(Nc3ccc(Oc4ccn5ncnc5c4)c(C)c3)c2cc1NC(=O)/C=C/[C@H]1CCCN1C [Final product of Embodiment 22]
inhibition at 20 min, 10 µM [%]: 37
--
Compound: C=C(F)C(=O)N1CC=C(c2ccc3ncnc(Nc4ccc(Oc5cc6nncn6cn5)c(C)c4)c3c2)CC1 [Final product of Embodiment 6]
inhibition at 20 min, 10 µM [%]: 41

We now examine a further compound.
Measured inhibition at 20 min, 10 µM, Cc1cc(Nc2ncnc3ccc(NC(=O)/C(F)=C\[C@H]4CCCN4C)cc23)ccc1Oc1ccn2ncnc2c1 [Final product of Embodiment 40] : 18

----------
IC50 by entry:
molecular target: ErbB2 kinase (Homo sapiens); construct: The final concentration of ErbB2 kinase was 0.06 ng/μL; experiment: EGFR/ErbB2 enzymatic experiment (HTRF kinEASE-TK), ErbB2; assay type: biochemical; conditions: ErbB2 kinase 0.06 ng/μL, ATP 4 μM; read-out: Kinase IC50 (nM) in vitro ErbB2
Sequence (P04626 23-1255): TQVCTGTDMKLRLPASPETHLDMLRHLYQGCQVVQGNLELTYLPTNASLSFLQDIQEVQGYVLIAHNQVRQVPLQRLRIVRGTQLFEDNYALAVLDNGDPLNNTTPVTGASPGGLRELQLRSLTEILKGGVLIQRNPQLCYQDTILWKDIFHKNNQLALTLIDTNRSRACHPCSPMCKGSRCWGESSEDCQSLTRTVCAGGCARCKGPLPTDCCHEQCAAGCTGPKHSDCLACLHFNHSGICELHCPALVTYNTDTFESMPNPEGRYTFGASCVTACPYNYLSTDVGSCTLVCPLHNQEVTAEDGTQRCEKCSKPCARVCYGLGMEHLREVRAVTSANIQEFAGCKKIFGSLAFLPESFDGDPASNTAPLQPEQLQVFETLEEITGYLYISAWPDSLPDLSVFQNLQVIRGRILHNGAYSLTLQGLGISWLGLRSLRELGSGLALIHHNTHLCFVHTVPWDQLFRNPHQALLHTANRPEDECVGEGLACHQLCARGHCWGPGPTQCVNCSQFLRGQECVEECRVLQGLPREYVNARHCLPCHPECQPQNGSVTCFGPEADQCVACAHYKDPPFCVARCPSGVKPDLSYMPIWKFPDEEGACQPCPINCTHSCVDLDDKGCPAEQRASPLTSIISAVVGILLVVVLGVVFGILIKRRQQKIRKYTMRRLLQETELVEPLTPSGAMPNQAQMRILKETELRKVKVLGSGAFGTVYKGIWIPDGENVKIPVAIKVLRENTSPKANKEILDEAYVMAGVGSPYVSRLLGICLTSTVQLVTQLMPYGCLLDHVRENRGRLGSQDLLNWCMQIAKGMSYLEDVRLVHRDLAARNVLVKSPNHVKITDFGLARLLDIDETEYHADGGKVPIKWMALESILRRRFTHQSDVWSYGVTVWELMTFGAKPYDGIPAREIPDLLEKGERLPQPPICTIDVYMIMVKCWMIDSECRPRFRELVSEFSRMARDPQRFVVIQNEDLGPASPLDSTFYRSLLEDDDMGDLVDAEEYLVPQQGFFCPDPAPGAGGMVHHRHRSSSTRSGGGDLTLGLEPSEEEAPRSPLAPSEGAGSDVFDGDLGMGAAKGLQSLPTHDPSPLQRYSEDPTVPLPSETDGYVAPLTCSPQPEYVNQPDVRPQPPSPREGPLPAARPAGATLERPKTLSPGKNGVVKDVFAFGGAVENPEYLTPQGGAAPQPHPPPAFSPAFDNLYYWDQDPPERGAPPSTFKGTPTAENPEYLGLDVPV
Reply numerically in nM, unit not repeated.

Compound: CCOc1cc2ncnc(Nc3ccc(Oc4ccn5ncnc5c4)c(C)c3)c2cc1NC(=O)/C(F)=C\[C@H]1CCCN1C [Final product of Embodiment 44]
System Tested: ErbB2 kinase (Homo sapiens)
IC50 / nM: 2.4
--
Compound: CCOc1cc2ncnc(Nc3ccc(Oc4ccn5ncnc5c4)c(C)c3)c2cc1NC(=O)/C(F)=C/[C@@H]1CCCN1C [Final product of Embodiment 47]
System Tested: ErbB2 kinase (Homo sapiens)
IC50 / nM: 4.2
--
Compound: Cc1cc(Nc2ncnc3ccc(NC(=O)/C=C/[C@H]4CCCN4C)cc23)ccc1Oc1ccc2nc[nH]c2c1
System Tested: ErbB2 kinase (Homo sapiens)
IC50 / nM: 0.689
--
Compound: CCOc1cc2ncc(C#N)c(Nc3ccc(OCc4ccccn4)c(Cl)c3)c2cc1NC(=O)/C=C/[C@H]1CCCN1C [drawing 239, reference compound]
System Tested: ErbB2 kinase (Homo sapiens)
IC50 / nM: 1.67
--
Compound: Cc1cc(Nc2ncnc3ccc(NC(=O)/C=C/[C@H]4CCCN4C)cc23)ccc1Oc1cnn2cnnc2c1 [Final product of Embodiment 29]
System Tested: ErbB2 kinase (Homo sapiens)
IC50 / nM: 15.2

We now examine a further compound.
Measured IC50, CCOc1cc2ncnc(Nc3ccc(Oc4ccn5ncnc5c4)c(C)c3)c2cc1NC(=O)/C=C/[C@H]1CCCN1 [Final product of Embodiment 38] : 0.5

----------
molecular target: CYP2C19 (Homo sapiens); construct: A system of 100 μL human liver microsomes; from tissue; host or cells: human liver microsomes; assay: Direct inhibition (DI) of CYP2C19 in human liver microsomes; format: in vitro ADME; conditions: probe Mephenytoin, human liver microsomes 0.2 mg/mL, 10 μM compound, read-out: Direct inhibition (DI) 2C19 (Mephenytoin)
Metric Name: inhibition at 20 min, 10 µM (%)
Reply numerically in %, unit not repeated.

Guide cases for inhibition at 20 min, 10 µM, answers given:
Molecule: CCOc1cc2ncnc(Nc3ccc(Oc4ccn5ncnc5c4)c(C)c3)c2cc1NC(=O)/C(F)=C\[C@H]1CCCN1C
Units Of Measure: %
Readout Number: 27
--
Molecule: CCOc1cc2ncc(C#N)c(Nc3ccc(Oc4cc5nncn5cn4)c(C)c3)c2cc1NC(=O)/C=C/[C@H]1CCCN1C
Units Of Measure: %
Readout Number: 49
--
Molecule: C=CC(=O)N[C@@H]1CCCN(c2ccc3ncnc(Nc4ccc(Oc5cc6nncn6cn5)c(C)c4)c3c2)C1
Units Of Measure: %
Readout Number: 9

Measured inhibition at 20 min, 10 µM, CCOc1cc2ncnc(Nc3ccc(Oc4ccn5ncnc5c4)c(C)c3)c2cc1NC(=O)/C(F)=C/[C@@H]1CCCN1C : 47

Measured inhibition at 20 min, 10 µM, CCOc1cc2ncnc(Nc3ccc(Oc4cc5nncn5cn4)c(C)c3)c2cc1NC(=O)/C=C/[C@H]1CCCN1 : 9

Measured inhibition at 20 min, 10 µM, CCOc1cc2ncnc(Nc3ccc(Oc4cc5nncn5cn4)c(C)c3)c2cc1NC(=O)/C=C/[C@H]1CCCN1C : 8

Measured inhibition at 20 min, 10 µM, CCOc1cc2ncc(C#N)c(Nc3ccc(Oc4cc5nncn5cn4)c(C)c3)c2cc1NC(=O)/C=C/[C@H]1CCCN1 : 75

Measured inhibition at 20 min, 10 µM, C=CC(=O)N1CCCC(Nc2ccc3ncnc(Nc4ccc(Oc5cc6nncn6cn5)c(C)c4)c3c2)C1 (stereo in doubt) : 28

----------
biological target: CYP2C19 (Homo sapiens, UniProt P33261); construct: A system of 100 μL human liver microsomes; from tissue; host or cells: human liver microsomes; assay: Direct inhibition (DI) of CYP2C19 in human liver microsomes; assay type: in vitro ADME; conditions: probe Mephenytoin, human liver microsomes 0.2 mg/mL, 10 μM compound, read-out: Direct inhibition (DI) 2C19 (Mephenytoin)
inhibition at 20 min, 10 µM by entry:
Reply numerically in %, unit not repeated.

Guide cases for inhibition at 20 min, 10 µM, answers given:
Compound: Cc1cc(Nc2ncnc3ccc(NC(=O)/C=C/[C@H]4CCCN4C)cc23)ccc1Oc1cc2nccn2cn1 [Final product of Embodiment 41]
System Tested: CYP2C19 (Homo sapiens, UniProt P33261)
Units Of Measure: %
inhibition at 20 min, 10 µM: 1
//
Compound: CCOc1cc2ncnc(Nc3ccc(Oc4ccn5ncnc5c4)c(C)c3)c2cc1NC(=O)/C=C/[C@H]1CCCN1 [Final product of Embodiment 38]
System Tested: CYP2C19 (Homo sapiens, UniProt P33261)
Units Of Measure: %
inhibition at 20 min, 10 µM: 45
//
Compound: CCOc1cc2ncc(C#N)c(Nc3ccc(OCc4ccccn4)c(Cl)c3)c2cc1NC(=O)/C=C/[C@H]1CCCN1C [Pyrotinib, reference compound]
System Tested: CYP2C19 (Homo sapiens, UniProt P33261)
Units Of Measure: %
inhibition at 20 min, 10 µM: 43
//
Compound: Cc1cc(Nc2ncnc3ccc(NC(=O)/C=C/[C@H]4CCCN4C)cc23)ccc1Oc1ccc2nccn2n1 [Final product of Embodiment 10]
System Tested: CYP2C19 (Homo sapiens, UniProt P33261)
Units Of Measure: %
inhibition at 20 min, 10 µM: 9
//
Compound: Cc1cc(Nc2ncnc3ccc(NC(=O)/C=C/[C@H]4CCCN4C)cc23)ccc1Oc1ccn2ccnc2c1 [Final product of Embodiment 11]
System Tested: CYP2C19 (Homo sapiens, UniProt P33261)
Units Of Measure: %
inhibition at 20 min, 10 µM: 26

Form: item Cc1cc(Nc2ncnc3ccc(NC(=O)/C=C/[C@H]4CCCN4C)cc23)ccc1Oc1ccc2nccn2c1 [Final product of Embodiment 24] ; test system CYP2C19 (Homo sapiens, UniProt P33261); inhibition at 20 min, 10 µM: 36

----------
biological target: EGFR kinase (Homo sapiens, UniProt P00533); assay: EGFR/ErbB2 enzymatic experiment (HTRF kinEASE-TK), EGFR; type: biochemical; conditions: EGFR kinase 0.06 units/μL, ATP 1.65 μM; read-out: Kinase IC50 (nM) in vitro EGFR
Sequence (P00533 25-1210): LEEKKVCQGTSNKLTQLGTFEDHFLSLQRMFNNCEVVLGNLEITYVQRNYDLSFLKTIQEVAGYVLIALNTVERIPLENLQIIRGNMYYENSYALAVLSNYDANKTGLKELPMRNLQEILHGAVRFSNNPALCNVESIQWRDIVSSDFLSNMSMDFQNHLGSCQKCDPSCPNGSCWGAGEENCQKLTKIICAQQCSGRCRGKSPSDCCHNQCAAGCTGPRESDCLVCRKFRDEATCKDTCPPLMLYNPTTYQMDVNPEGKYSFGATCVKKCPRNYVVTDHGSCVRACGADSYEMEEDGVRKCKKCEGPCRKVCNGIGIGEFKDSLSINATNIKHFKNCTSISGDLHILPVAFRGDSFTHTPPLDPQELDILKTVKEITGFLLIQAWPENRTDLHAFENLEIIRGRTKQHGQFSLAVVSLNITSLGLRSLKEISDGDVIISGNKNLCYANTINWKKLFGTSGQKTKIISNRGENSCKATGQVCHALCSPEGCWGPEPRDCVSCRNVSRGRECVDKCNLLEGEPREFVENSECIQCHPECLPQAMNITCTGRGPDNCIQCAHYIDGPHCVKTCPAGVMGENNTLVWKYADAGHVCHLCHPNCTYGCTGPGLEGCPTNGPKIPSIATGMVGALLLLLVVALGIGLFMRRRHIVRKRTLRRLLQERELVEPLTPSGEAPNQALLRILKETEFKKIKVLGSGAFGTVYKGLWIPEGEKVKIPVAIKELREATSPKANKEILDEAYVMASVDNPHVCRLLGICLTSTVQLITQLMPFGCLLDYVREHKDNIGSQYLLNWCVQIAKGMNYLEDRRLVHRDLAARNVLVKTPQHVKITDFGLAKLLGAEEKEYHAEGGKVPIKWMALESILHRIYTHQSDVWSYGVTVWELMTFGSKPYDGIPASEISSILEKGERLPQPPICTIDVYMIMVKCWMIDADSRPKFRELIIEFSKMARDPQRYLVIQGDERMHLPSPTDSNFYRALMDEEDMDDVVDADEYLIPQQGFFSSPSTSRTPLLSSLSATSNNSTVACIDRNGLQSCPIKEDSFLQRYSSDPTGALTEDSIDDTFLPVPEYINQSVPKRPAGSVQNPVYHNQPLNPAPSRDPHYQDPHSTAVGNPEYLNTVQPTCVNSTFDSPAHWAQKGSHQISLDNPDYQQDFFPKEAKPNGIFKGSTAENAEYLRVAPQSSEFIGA
Classify: Met when IC50 is strictly less than 0.8 nM; Not met when IC50 is not.

Compound: Cc1cc(Nc2c(C#N)cnc3ccc(NC(=O)/C=C/[C@H]4CCCN4)cc23)ccc1Oc1cc2nncn2cn1 [Final product of Embodiment 21]
Class: Not met
//
Compound: Cc1cc(Nc2ncnc3ccc(NC(=O)/C=C/[C@H]4CCCN4C)cc23)ccc1Oc1ccn2ncnc2c1 [Final product of Embodiment 20]
Class: Not met
//
Compound: COCCOc1cc2ncnc(Nc3ccc(Oc4cc5nncn5cn4)c(C)c3)c2cc1NC(=O)/C=C/[C@H]1CCCN1 [Final product of Embodiment 35]
Class: Met
//
Compound: Cc1cc(Nc2ncnc3ccc(NC(=O)/C=C/[C@H]4CCCN4C)cc23)ccc1Oc1cc2nccn2cn1 [Final product of Embodiment 41]
Class: Met
//
Compound: Cc1cc(Nc2ncnc3ccc(NC(=O)/C=C/[C@H]4CCCN4C)cc23)ccc1Oc1ccc2nc[nH]c2c1
Class: Not met

Does CCOc1cc2ncnc(Nc3ccc(Oc4cc5nncn5cn4)c(C)c3)c2cc1NC(=O)/C=C/[C@H]1CCCN1 [Final product of Embodiment 17] have IC50 strictly under 0.8 nM?
Met

Does Cc1cc(Nc2ncnc3ccc(NC(=O)/C=C/[C@H]4CCCN4C)cc23)ccc1Oc1ccc2nccn2c1 [Final product of Embodiment 24] have IC50 strictly under 0.8 nM?
Not met

Does CCOc1cc2ncnc(Nc3ccc(Oc4ccn5ncnc5c4)c(C)c3)c2cc1NC(=O)/C(F)=C/[C@H]1CCCN1C [Final product of Embodiment 45] have IC50 strictly under 0.8 nM?
Not met
